meta.source: patent US7101878B1

- tested_system: human GnRH receptor (Homo sapiens, UniProt P30968)
- Construct: expressed in transfected cells; host or cells: HEK 293 (hGnRH-R/293, from Dr. Stuart Sealfon)
- Sequence (P30968 whole entry): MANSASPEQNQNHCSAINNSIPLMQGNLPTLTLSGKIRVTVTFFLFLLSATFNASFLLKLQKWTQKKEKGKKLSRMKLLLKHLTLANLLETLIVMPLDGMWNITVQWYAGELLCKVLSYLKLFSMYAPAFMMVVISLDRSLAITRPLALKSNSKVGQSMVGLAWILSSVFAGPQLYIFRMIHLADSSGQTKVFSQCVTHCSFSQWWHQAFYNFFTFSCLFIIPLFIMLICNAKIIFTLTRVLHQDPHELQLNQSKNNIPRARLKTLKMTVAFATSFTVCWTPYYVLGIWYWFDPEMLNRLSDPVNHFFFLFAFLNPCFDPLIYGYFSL
- method_summary: Radioligand binding, 125I-GnRH-A displacement, membranes of HEK 293 cells with human GnRH receptor
- settings: 1 uM; read-out: % Inhib. @ 1 uM hGnRH
Reported inhibition at 1 µM values for the following compounds.

[
  {
    "compound": "Cc1cc2c(cc1Cc1ccc(C(=O)N3CCN(c4ncccn4)CC3)o1)C(C)(C)CCC2(C)C [drawing 1124]",
    "unit_string": "%",
    "inhibition at 1 µM": -2
  },
  {
    "compound": "Cc1cc2c(cc1Cc1ccc(C(=O)NC3CCc4ccccc43)o1)C(C)(C)CCC2(C)C (centres unmarked) [drawing 1129]",
    "unit_string": "%",
    "inhibition at 1 µM": 38
  },
  {
    "compound": "Cc1cc2c(cc1Cc1ccc(C(=O)NCCSCc3c(Cl)cccc3Cl)o1)C(C)(C)CCC2(C)C",
    "unit_string": "%",
    "inhibition at 1 µM": 14
  },
  {
    "compound": "Cc1cc2c(cc1Cc1ccc(C(=O)N(C)[C@H](C)[C@H](O)c3ccccc3)o1)C(C)(C)CCC2(C)C",
    "unit_string": "%",
    "inhibition at 1 µM": -10
  },
  {
    "compound": "Cc1cc2c(cc1Cc1ccc(C(=O)N[C@H](C)[C@@H](O)c3ccccc3)o1)C(C)(C)CCC2(C)C",
    "unit_string": "%",
    "inhibition at 1 µM": 19
  },
  {
    "compound": "Cc1cc2c(cc1Cc1ccc(C(=O)NC(CO)c3ccccc3)o1)C(C)(C)CCC2(C)C (centres unmarked)",
    "unit_string": "%",
    "inhibition at 1 µM": 17
  },
  {
    "compound": "Cc1cc2c(cc1Cc1ccc(C(=O)NCC3CCN(c4nccc(NCC5CCCO5)n4)CC3)o1)C(C)(C)CCC2(C)C (centres unmarked) [drawing 1037]",
    "unit_string": "%",
    "inhibition at 1 µM": 35
  },
  {
    "compound": "COc1ccc(C(O)C(CO)NC(=O)c2ccc(Cc3cc4c(cc3C)C(C)(C)CCC4(C)C)o2)cc1 (centres unmarked)",
    "unit_string": "%",
    "inhibition at 1 µM": -11
  }
]
